Below: a set of entries, each annotated with reported Population Membrane Permeable-Phenotype (%).
- System: U2OS
- protocol: Multiplex assay against U2OS
- Type: toxicity, cell-based
- assay.setup: human, 12 h, 1 µM, compound concentration 1 uM, replicate 1
Kindly provide the numeric value in % only, without the unit symbol.

Reference set (3 entries):
{"columns": ["molecule", "recorded.number"],
 "data": [
  ["CCN1CCN(c2ccc(Nc3cc(N(C)C(=O)Nc4c(Cl)c(OC)cc(OC)c4Cl)ncn3)cc2)CC1", 20],
  ["NC(=O)c1cccc(-c2cc(Nc3ccc(OC(F)(F)F)cc3)ncn2)c1", 8],
  ["CCCS(=O)(=O)c1nc(NC2CC2)cc(-c2ccc3c(ccn3C3CC(C)(C)NC(C)(C)C3)c2)n1", 8]
]}

## Task // lookup Population Membrane Permeable-Phenotype (%) for `S=C(NCCCc1c[nH]cn1)NCCCN(Cc1ccc(Cl)c(Cl)c1)c1ccc(Br)cn1`
## Result 7

## Task Also `CCc1cccc(CC)c1NC(=O)c1nn(C)c2c1CCc1cnc(Nc3ccc(C(=O)NC4CCN(C)CC4)cc3OC(F)(F)F)nc1-2` ?
## Result 3

## Task Also `Cc1ccc2nc(NCCN)c3ncc(C)n3c2c1.O=C(O)C(F)(F)F.O=C(O)C(F)(F)F` ?
## Result 6

## Task Also `CCN1CCN(Cc2ccc(Nc3ncc(F)c(-c4cc(F)c5nc(C)n(C(C)C)c5c4)n3)nc2)CC1.CS(=O)(=O)O` ?
## Result 4

## Task Also `Cl.O=C(c1ccc(Nc2nccc(-c3cc4ccccc4s3)n2)cc1)N1CCC(N2CCCC2)CC1` ?
## Result 18

## Task Also CN1C2CCC1CC(OC(c1ccc(F)cc1)c1ccc(F)cc1)C2.Cl (stereo unspecified) ?
## Result 2

## Task Also `Cl.Oc1ccc2c3c1O[C@H]1c4[nH]c5c(c4C[C@@]4(O)[C@@H](C2)N(CC2CC2)CC[C@]314)C[C@@]1(O)[C@H]2Cc3ccc(O)c4c3[C@@]1(CCN2CC1CC1)[C@H]5O4` ?
## Result 9

## Task Also CN(C)C(=O)C(CCN1CCC(O)(c2ccc(Cl)cc2)CC1)(c1ccccc1)c1ccccc1.Cl [LOPERAMIDE HYDROCHLORIDE] ?
## Result 5

## Task Also `O=C(Nc1ccc(-c2ccnc(Nc3ccc(N4CCOCC4)cc3)n2)cc1)[C@@H]1CCCN1` ?
## Result 6

## Task Also `COc1cc(N2CCN(C)CC2)ccc1Nc1ncc2c(n1)N(C)c1ccccc1C(=O)N2C` ?
## Result 6

## Task Also `C[C@H]1Oc2cc(cnc2N)-c2c(nn(C)c2C#N)CN(C)C(=O)c2ccc(F)cc21` ?
## Result 14

## Task Also `Cc1cc(C)c(S(=O)(=O)N(Cc2ccc(-c3cccc(S(C)(=O)=O)c3)cc2)Cc2ccc(C(F)(F)F)o2)c(C)c1` ?
## Result 4

## Task Also `CCn1cc(-c2ccnc3[nH]c(-c4cccc(CN(C)C)c4)cc23)c(-c2ccc(NC(=O)N(C)C)cc2)n1` ?
## Result 28

## Task Also `COc1ccc(-c2ccc3c(N4CCOCC4)nc(N4C[C@@H](C)O[C@@H](C)C4)nc3n2)cc1CO` ?
## Result 8

## Task Also `Cl.O=c1c2cccn2c2ccccc2n1CCCN1CCC(c2ccc(Cl)cc2)CC1` ?
## Result 2

## Task Also `Cn1nc(C(F)(F)F)cc1-c1cnc(N2CCc3cc(S(=O)(=O)Nc4c(F)cc(Cl)cc4F)cc(N4CCCC4=O)c32)nc1` ?
## Result 17

## Task Also `CNC(=O)c1ccc(Nc2nc(OC3CCCC3)c3c(-c4ccc5nc(C)oc5c4)c[nH]c3n2)c(OC)c1` ?
## Result 58

## Task Also `CCNc1cc(N[C@H]2CC[C@H](O)CC2)nc(Nc2ccc3c(ccn3Cc3ccccc3)c2)n1` ?
## Result 33
